Values from PubChem BioAssay (NCI)

# System: RPMI-8226 leukemia
# assayMethodText: NCI tumour cell line growth inhibition, 48 h; in the data active = GI50 below about 0.43 µM; inactive = the rest
Valid outcomes are listed here; reply with one: Y = active, N = inactive

Use these answered entries as a reference point.
> print(dat)
                       smilesrepresentation        systemtested  assignedlabel
1  COc1ccc(-c2nc3cc(C)ccc3n2CC(=O)N=Nc2c(O)[nH]c3ccc(Cl)cc23)cc1  RPMI-8226 leukemia              N
2  COc1ccc(/C=C/c2nc3ccccc3c(=O)n2CC(=O)Nc2ccccc2)cc1  RPMI-8226 leukemia              N

query: Look up the recorded call for "O=C1Nc2ccc(F)cc2/C1=C/c1cccc(OCc2ccccn2)c1" in this test.
result: N

query: I'd appreciate the recorded outcome for "CNc1nc2ccccc2n2c(-c3ccc(O)c(O)c3)cnc12" from this test.
result: Y

----------
Listed here are molecules together with their documented TGI.
# Test system: SK-OV-3 ovarian
# assayMethodText: NCI tumour cell line growth inhibition, 48 h
I only need the number, in µM, no unit after it.

Example results:
> print(dat)
                       smilesrepresentation  reportedmeasurement
1  O=C1Nc2ccc(F)cc2/C1=C/c1cccc(OCc2ccccn2)c1                   50
2  C=CCn1c(SCC(=O)Nc2ccc(C(=O)/C=C/c3ccccc3)cc2)nnc1-c1c[nH]c2ccccc12                 32.4
3  COc1ccc(-c2nc3cc(C)ccc3n2CC(=O)N=Nc2c(O)[nH]c3ccccc23)cc1                 6.06

// next entry
query: Any idea what TGI was measured for "CNc1nc2ccccc2n2c(-c3ccc(O)c(O)c3)cnc12" ?
result: 13.6

----------
# Test system: KM12 colon
# assayMethodText: NCI tumour cell line growth inhibition, 48 h; in the data active means GI50 below about 0.43 µM; inactive means the rest
Hi! Could you answer with just one of these? active, inactive

> print(dat)
                       smilesrepresentation  assignedlabel
1    CNc1nc2ccccc2n2c(-c3ccc(O)c(O)c3)cnc12         active
2  O=C1Nc2ccc(F)cc2/C1=C/c1cccc(OCc2ccccn2)c1       inactive
3  COc1ccc(-c2nc3cc(C)ccc3n2CC(=O)N=Nc2c(O)[nH]c3ccc(Cl)cc23)cc1       inactive

query: Outcome logged for "C=CCn1c(SCC(=O)Nc2ccc(C(=O)/C=C/c3ccccc3)cc2)nnc1-c1c[nH]c2ccccc12" in this assay:
result: inactive

----------
# System: RXF 393 renal
# assayMethodText: NCI tumour cell line growth inhibition, 48 h
testReadout: GI50

Worked cases, answers included:
> print(dat)
                       smilesrepresentation  testreadout  reportedmeasurement
1  COc1ccc(-c2nc3cc(C)ccc3n2CC(=O)N=Nc2c(O)[nH]c3ccc(Cl)cc23)cc1         GI50              1490 nM
2  C=CCn1c(SCC(=O)Nc2ccc(C(=O)/C=C/c3ccccc3)cc2)nnc1-c1c[nH]c2ccccc12         GI50              3930 nM

query: # input molecule: "CNc1nc2ccccc2n2c(-c3ccc(O)c(O)c3)cnc12" ; wanted: its GI50
result: < 10 nM

query: Report GI50 for "COc1ccc(/C=C/c2nc3ccccc3c(=O)n2CC(=O)Nc2ccccc2)cc1" please.
result: 2230 nM

query: Look up GI50: "COc1ccc(-c2nc3cc(C)ccc3n2CC(=O)N=Nc2c(O)[nH]c3ccccc23)cc1"
result: 1550 nM
